Provenance of the data: paper PMC6979384

system: MORC3 (CW); test: Histone peptide microarray; format: binding, human; conditions: MORC3 (CW), GST-tagged; arrays performed twice, n of 4
Where no end group is shown, it is not given here. [ ]: non-standard residue; d: D form. Arg(Me2a) = CN(C)C(=N)NCCC[C@H](N)C(=O)O; pS = N[C@@H](COP(=O)(O)O)C(=O)O
Measure Name: Array Heatmap value (peptide array binding signal)

Recorded Array Heatmap value (peptide array binding signal) (substance H2AX (132-142): H2AX 132-142 (GKKATQASQEY; UniProt P16104 133-143, looked up, fragment) ): 0.4162

Recorded Array Heatmap value (peptide array binding signal) (substance H2A.Z (1-19) (N-ac): H2AZ 1-19 (Ac-AGGKAGKDSGKAKTKAVSR; UniProt P0C0S5 2-20, looked up, fragment) ): 0.339

Recorded Array Heatmap value (peptide array binding signal) (substance H2AR3me2a + K5ac: H2A 1-17 (SG[Arg(Me2a)]GK(Ac)QGGKARAKAKTR; UniProt P0C0S8 2-18, looked up, fragment) ): 0.3531

Recorded Array Heatmap value (peptide array binding signal) (substance H2AX (S139p): H2AX 132-142 (GKKATQA[pS]QEY; UniProt P16104 133-143, looked up, fragment) ): 0.3885

Recorded Array Heatmap value (peptide array binding signal) (substance H2A.Z K4ac + K8ac + K12ac (1-19) (N-ac): H2AZ 1-19 (Ac-AGGKAGKDSGKAKTKAVSR; not fully specified (residue 4); UniProt P0C0S5 2-20, looked up, fragment) ): 0.4285

Recorded Array Heatmap value (peptide array binding signal) (substance Myc-Tag: 1-10 (ILKKATAYIL; Myc epitope tag; UniProt P01106 410-419, looked up, fragment) ): 0.3567
